experimental_system: rat Peripheral-type Benzodiazepine Receptor (PBR), Tspo (gene 24230)
assay_info: NVS_MP_rPBR: NovaScreen (NVS) Membrane Protein Assay for rat Peripheral-type Benzodiazepine Receptor (PBR) (AID 2283335)
Inconclusive results are not listed. Calls of active or inactive are those of the source. The calls were made as follows: active = hit-call score of the fitted dose curve at least 0.9, where 1 is the maximum; inconclusive = response in the unintended direction; inactive = score below 0.9.
Classes to choose from: active, inactive

Worked cases, answers included:
* CCc1cc(Cc2cc(CC)c(N)c(CC)c2)cc(CC)c1N | active
* CCN(CC)c1ccc(C=O)cc1 | inactive
* CCN(CC)c1ccc(C=O)c(O)c1 | inactive
* O=C(c1ccccc1)c1ccc(Cl)cc1 | active

Exercise: # outcome recorded in this test, key = CCN=C1C=CC(=C(c2ccc(N(CC)CC)cc2)c2ccc(N(CC)CC)cc2)c2ccccc21
Solution: active
